# Tested on: E. coli TESEC Alr+ wild-type control
# measurement protocol: growth (OD600 after 10 h); higher = more growth (less inhibition)
# recorded conditions: compound 0.1 mM; raw OD600 reference: median of DMSO wells 0.49, cell-free background 0.052
Structures can show the parent of a compound that is named as a salt.
observation type: growth
Just the number, please, no unit after it.

Ask: Returns the measured growth for the input compound. Input: c1ccc2c(c1)CCCC2C1=NCCN1 (stereo not given) [Tetrahydrozoline hydrochloride]
Result: 0.479

Ask: Next record, please: COc1ccc([C@@H]2Sc3ccccc3N(CCN(C)C)C(=O)[C@@H]2OC(C)=O)cc1 [Diltiazem hydrochloride]
Result: 0.476

Ask: Another compound: CC(C)NC[C@H](O)COc1cccc2ccccc12 [(S)-propranolol hydrochloride]
Result: 0.497

Ask: Also COc1ncnc(NS(=O)(=O)c2ccc(N)cc2)c1OC [Sulfadoxine] ?
Result: 0.594

Ask: Try this compound next: O=C(O)c1cccnc1 [Niacin]
Result: 0.522
